Reported Ragweed plant response rating is given for each of the following molecules.
# System: ragweed
# test_protocol: Test C preemergence
# Type: in vivo, Ambrosia elatior
# condition_set: 125 g ai/ha, preemergence; scale 0 (no effect) to 100 (complete control)
quantity: Ragweed plant response rating

1) Fc1cccc(Oc2ncc(Cl)cn2)c1-n1cc(OCC(F)(F)F)cn1 70
2) Fc1cnc(Oc2cccc(C(F)F)c2-n2cc(Br)cn2)nc1 100
3) CCOc1cnn(-c2c(C#N)cccc2Oc2ncc(Cl)cn2)c1 85
4) N#Cc1cnn(-c2c(CF)cccc2Oc2ncc(F)cn2)c1 100

---

# Tested on: hairy beggarticks
# test_protocol: Test E preemergence
# Type: in vivo, Bidens pilosa
# condition_set: Preemergence, 62 g ai/ha; scale 0 to 100, 0 no effect, 100 complete control
# Source text: […]
Reported Plant response rating, Beggarticks is given for each of the following compounds.
quantity: Plant response rating, Beggarticks

compound	test_value
Clc1cnc(Oc2ccccc2-n2cc(Br)cn2)nc1 [Compound 7]	0
FC(F)(F)c1cnn(-c2ccccc2Oc2ncc(Cl)cn2)c1 [Compound 16]	0
N#Cc1cccc(Oc2ncc(Cl)cn2)c1-n1cc(C(F)(F)F)cn1 [Compound 58]	0

---

# Tested on: johnsongrass
# test_protocol: Test C preemergence
# Format: in vivo, Sorghum halepense
# condition_set: Sorghum halepense, pre-emergence; 125 g ai/ha, preemergence; scale 0 (no effect) to 100 (complete control); read-out: Johnsongrass plant response rating
quantity: pest or weed control at 125 g/ha

1) FC(F)(F)Sc1cnn(-c2ccccc2Oc2ncc(Cl)cn2)c1 35%
2) FC(F)(F)COc1cnn(-c2ccccc2Oc2ncc(Cl)cn2)c1 65%
3) N#Cc1cccc(Oc2ncc(Cl)cn2)c1-n1cnc(C(F)(F)F)c1 100%
4) Clc1cnc(Oc2ccccc2-n2cc(Br)cn2)nc1 10%

---

# System: galium
# test_protocol: Test C preemergence
# Format: in vivo, Galium aparine
# condition_set: 125 g ai/ha, preemergence; scale 0 (no effect) to 100 (complete control)
quantity: Galium plant response rating

compound	test_value
FCc1cccc(Oc2ncc(F)cn2)c1-n1cc(C(F)(F)F)cn1 [Compound 118]	100
COc1cnn(-c2c(C#N)cccc2Oc2ncc(Cl)cn2)c1 [Compound 137]	95
N#Cc1cn(-c2c(Br)cccc2Oc2ncc(Cl)cn2)nn1 [Compound 116]	100
N#Cc1cccc(Oc2ncc(F)cn2)c1-n1cc(I)cn1 [Compound 86]	90
FCc1cccc(Oc2ncc(Cl)cn2)c1-n1cc(Cl)cn1 [Compound 250]	98

---

# Test system: morningglory
# test_protocol: Test A preemergence
# Type: in vivo, Ipomoea spp.
# condition_set: 500 g ai/ha, 0 to 100 scale where 0 is no effect and 100 is complete control
Reported Morningglory plant response rating is given for each of the following molecules.

molecule	Morningglory plant response rating
Clc1cnc(Oc2cccc(Cl)c2-n2cc(Br)cn2)nc1 [Compound 219]	10
FC(F)c1cccc(Oc2ncc(I)cn2)c1-n1cc(Br)cn1 [Compound 173]	0
N#Cc1cnn(-c2c(C=O)cccc2Oc2ncc(Cl)cn2)c1 [Compound 237]	0
FC(F)(F)c1cnn(-c2c(Cl)cccc2Oc2ncc(Br)cn2)c1 [Compound 168]	80
FC(F)c1cccc(Oc2ncc(Br)cn2)c1-n1cc(I)cn1 [Compound 185]	30
C#Cc1cnn(-c2ccccc2Oc2ncc(Cl)cn2)c1 [Compound 188]	90
Fc1cccc(Oc2ncc(Cl)cn2)c1-n1cccn1 [Compound 176]	0
CNN=Cc1cccc(Oc2ncc(Cl)cn2)c1-n1cc(Cl)cn1 [Compound 296]	0
Clc1cnc(Oc2cccc(-c3ccccc3)c2-n2cc(Br)cn2)nc1 [Compound 195]	10
